Cited source: PubChem BioAssay (NCI)

# System: SK-OV-3 ovarian
# assay.explanation: NCI-60 one-dose screen, 48 h (100 = growth as untreated, 0 = no growth, -100 = all killed)
# condition: 10 µM unless noted
About 83,000 compounds went through this panel and 20% of them were active in at least one assay; those are over-represented in the sample as a whole.
attribute.measured: growth (%)
Just the number please, in %, no unit attached.

{"compound": "CN1CCCN(CCNc2nccc(-c3c(-c4cccc(O)c4)nc4sccn34)n2)S1(=O)=O", "target.desc": "SK-OV-3 ovarian", "output.unit": "%", "growth": 15.5}
{"compound": "COc1ccc(C(=O)OC2C(OC3C(O)COC(O[C@H]4C[C@H]5[C@@H]6CC=C7C[C@@H](O)CC[C@]7(C)[C@H]6CC[C@]5(C)[C@H]4[C@H](C)C(=O)CCC(C)C)C3OC(=O)C(C)C)OCC(O)C2O)cc1 (stereo partly specified)", "target.desc": "SK-OV-3 ovarian", "output.unit": "%", "growth": -21.1}
{"compound": "O=C(c1ccccc1)c1cccc(C(Br)Br)c1", "target.desc": "SK-OV-3 ovarian", "output.unit": "%", "growth": 94}
{"compound": "Cc1cc2nc(CN)[nH]c2cc1C", "target.desc": "SK-OV-3 ovarian", "output.unit": "%", "growth": 104}
{"compound": "COc1ccc(-c2ccc(-c3ccc(C(=N)N)s3)s2)cc1", "target.desc": "SK-OV-3 ovarian", "output.unit": "%", "growth": -88.9}

// query Bench note: what growth did `CCN(CC)CCCCCCCCNc1c2ccc(Cl)cc2nc2ccc(OC)cc12` show?
// result -29.1

// query Bench note: what growth did COc1ccc(CC2c3cc(OC)c(OC)cc3CC[N+]2(C)CCC(=O)OCCCCCOC(=O)CC[N+]2(C)CCc3cc(OC)c(OC)cc3C2Cc2ccc(OC)c(OC)c2)cc1OC (stereo unspecified) show?
// result 110

// query Bench note: what growth did `C=C1C(=O)O[C@H]2[C@H]1CC/C(COC(=O)NCc1c[nH]c3ccc(OC)cc13)=C\CC[C@@]1(C)O[C@@H]21` show?
// result 68.3

// query Bench note: what growth did `COc1ccccc1/C=C/C(=O)CCC(=O)O` show?
// result 98.5

// query Bench note: what growth did `COc1cc2ncnc(Nc3ccc(S(=O)(=O)Nc4nccs4)cc3)c2cc1OCCCN1CCOCC1` show?
// result 96.2

// query Bench note: what growth did `S=C(Cc1ccccc1)N1CCN(c2ccccc2Cl)CC1` show?
// result 101

// query Bench note: what growth did `O=C(N/N=C/c1ccc([N+](=O)[O-])o1)c1ccc(O)cc1` show?
// result 63.8

// query Bench note: what growth did `Clc1cc(Cl)cc(-c2cnc3nonc3n2)c1` show?
// result 96.4

// query Bench note: what growth did CC1(C)OC2OC3C(CN)OC(c4ccccc4)OC3C2O1 (stereo unspecified) show?
// result 104

// query Bench note: what growth did `O=C(CCCCCCN1CC(=O)N2[C@@H](c3ccc(Cl)c(Cl)c3)c3[nH]c4ccccc4c3C[C@H]2C1=O)NO` show?
// result 73.6

// query Bench note: what growth did Cc1ccc(C(CN(C)C)C(=O)c2ccccc2)cc1 (stereo unspecified) show?
// result 97.6
